Tested on: Trypanosoma brucei brucei
Assay: Activity at bloodstream Trypanosoma brucei brucei 5'-deoxy-5'-(methylthio)-adenosine phosphorylase by spectrophotometry in presence of 50 mM PO4- relative to control
Settings: LAB 110 EATRO
Give class 1 when the value for Activity is at least 30%. Give class 0 when it is less.

Nc1nc(N)c2ncn([C@@H]3O[C@H](CSCCO)[C@@H](O)[C@H]3O)c2n1: class 0
OCCSC[C@H]1O[C@@H](n2cnc3cncnc32)[C@H](O)[C@@H]1O: class 0
Nc1ncnc2c1ncn2[C@@H]1O[C@H](CSCCO)[C@@H](O)[C@H]1O: class 1

Has Nc1ncnc2c1ncn2[C@H]1C[C@H](O)[C@@H](CSCCO)O1 a recorded Activity greater than or equal to 30%?
class 1

Is the recorded value of Activity equal to or greater than 30% for this molecule? Nc1ncnc2c1ncn2[C@@H]1O[C@H](CSCCO)C[C@H]1O
class 1

* * *

System: Trypanosoma brucei brucei
Experiment: Activity at bloodstream Trypanosoma brucei brucei 5'-deoxy-5'-(methylthio)-adenosine phosphorylase by spectrophotometry relative to control
Set-up: concentration or dose not given beside the values
Conditions: LAB 110 EATRO
Decide using Activity: a value greater than or equal to 60% is T, a smaller one is F.

Nc1ncnc2c1ncn2[C@H]1CC[C@@H](CSCCO)O1: F
CCSC[C@H]1O[C@@H](n2cnc3c(N)ncnc32)[C@H](O)[C@@H]1O: F
Nc1ncnc2c1ccn2[C@@H]1O[C@H](CSCCO)[C@@H](O)[C@H]1O: F
OCCSC[C@H]1O[C@@H](n2cnc3cncnc32)[C@H](O)[C@@H]1O: F
Nc1ncnc2c1ncn2[C@@H]1O[C@H](CSCCO)[C@@H](O)[C@H]1O: T

Check if Activity >= 60% (inclusive). Item: Nc1ncnc2c1ncn2[C@@H](CO)O[C@@H](CO)CSCCO
F

* * *

Organism: Mus musculus
Experiment: Activity at mouse liver 5'-deoxy-5'-(methylthio)-adenosine phosphorylase
Design: concentration or dose not given beside the values
In this section we review reported Activity values for a set of compounds.
Respond numerically; units are % and should not be typed.

CCSC[C@H]1O[C@@H](n2cnc3c(N)ncnc32)[C@H](O)[C@@H]1O: 100
CSC[C@H]1O[C@@H](n2cnc3c(N)ncnc32)[C@H](O)[C@@H]1O [METHYLTHIOADENOSINE]: 100
Nc1ncnc2c1ncn2[C@@H]1O[C@H](CSCCF)[C@@H](O)[C@H]1O: 64
CCCSC[C@H]1O[C@@H](n2cnc3c(N)ncnc32)[C@H](O)[C@@H]1O: 100

The record that follows has no Activity shown yet.
Using the record for Nc1ncnc2c1ncn2[C@@H]1O[C@H](CSCCCF)[C@@H](O)[C@H]1O , report its Activity.
64

* * *

Collected Activity values appear next to each entry.
Tested on: Trypanosoma brucei brucei
Assay: Activity at bloodstream Trypanosoma brucei brucei 5'-deoxy-5'-(methylthio)-adenosine phosphorylase by spectrophotometry in presence of 50 mM PO4- relative to control
Conditions: LAB 110 EATRO
Numeric answer only, unit % assumed.

For the record Nc1ncnc2c1ncn2[C@@H]1O[C@H](CSCCCO)[C@@H](O)[C@H]1O , what value of Activity is listed for Trypanosoma brucei brucei?
72.5

* * *

// values below are reported Activity
Test system: Trypanosoma brucei brucei
Assay: Activity at bloodstream Trypanosoma brucei brucei 5'-deoxy-5'-(methylthio)-adenosine phosphorylase by spectrophotometry in presence of 50 mM PO4- relative to control
Conditions: LAB 110 EATRO
Only the number, expressed in %, is required.

Nc1ncnc2c1ncn2[C@@H]1O[C@H](CSCCCF)[C@@H](O)[C@H]1O: 47.5
Nc1ncnc2c1ncn2[C@@H]1O[C@H](CSCCF)[C@@H](O)[C@H]1O: 75.3
CCSC[C@H]1O[C@@H](n2cnc3c(N)ncnc32)[C@H](O)[C@@H]1O: 76.2

I have this compound here, CCCSC[C@H]1O[C@@H](n2cnc3c(N)ncnc32)[C@H](O)[C@@H]1O , and I need its recorded Activity.
57.5

Please give the measured Activity for this compound: Nc1ncnc2c1ncn2[C@@H](CO)O[C@@H](CO)CSCCO
44

* * *

# reported Activity; entries follow
System: Trypanosoma brucei brucei
Experiment: Activity at bloodstream Trypanosoma brucei brucei 5'-deoxy-5'-(methylthio)-adenosine phosphorylase by spectrophotometry in presence of 50 mM PO4- relative to control
Conditions: LAB 110 EATRO
Your answer should be a plain number; it is taken to be in %.

NCCCSC[C@H]1O[C@@H](n2cnc3c(N)ncnc32)[C@H](O)[C@@H]1O: 46
OCCSC[C@H]1O[C@@H](n2cnc3c(O)ncnc32)[C@H](O)[C@@H]1O: 0
CNC[C@H]1O[C@@H](n2cnc3c(N)ncnc32)[C@H](O)[C@@H]1O: 4
COC(=O)CSC[C@H]1O[C@@H](n2cnc3c(N)ncnc32)[C@H](O)[C@@H]1O: 84

Read the next record carefully.
Look at this compound and give its reported Activity. Nc1ncnc2c1ncn2COCCSCCO
56

* * *

Activity values for the molecules below.
Tested on: Trypanosoma brucei brucei
Assay: Activity at bloodstream Trypanosoma brucei brucei 5'-deoxy-5'-(methylthio)-adenosine phosphorylase by spectrophotometry in presence of 50 mM PO4- relative to control
Conditions: LAB 110 EATRO
Just the number in %, nothing appended.

Examples from the recorded data:
Cc1ncnc2c1ncn2[C@@H]1O[C@H](CSCCO)[C@@H](O)[C@H]1O: 2
Nc1ncnc2c1ccn2[C@@H]1O[C@H](CSCCO)[C@@H](O)[C@H]1O: 0
OCCSC[C@H]1O[C@@H](n2cnc3c2ncn2ccnc32)[C@H](O)[C@@H]1O: 56
CSC[C@H]1O[C@@H](n2cnc3c(N)ncnc32)[C@H](O)[C@@H]1O: 100

Lab note: next molecule to report on.
Form: Entry = Nc1ncnc2c1ncn2[C@H]1CC[C@@H](CSCCO)O1 | System = Trypanosoma brucei brucei | Activity = ____
17

* * *

Tested on: Trypanosoma brucei brucei
Assay: Activity at bloodstream Trypanosoma brucei brucei 5'-deoxy-5'-(methylthio)-adenosine phosphorylase by spectrophotometry relative to control
Design: concentration or dose not given beside the values
Settings: LAB 110 EATRO
experimental readout: Activity (%)
Value expressed in %; do not type the unit.

Before answering, review these 3 worked examples.
OCCSC[C@H]1O[C@@H](n2cnc3c(F)ncnc32)[C@H](O)[C@@H]1O: 60
COC(=O)CSC[C@H]1O[C@@H](n2cnc3c(N)ncnc32)[C@H](O)[C@@H]1O: 34
CNC[C@H]1O[C@@H](n2cnc3c(N)ncnc32)[C@H](O)[C@@H]1O: 0

Find the recorded Activity belonging to Nc1ncnc2c1ncn2[C@@H]1O[C@H](CSCCCF)[C@@H](O)[C@H]1O and report it.
31.3

Report Activity for Nc1ncnc2c1ncn2[C@@H]1O[C@H](CSCCF)[C@@H](O)[C@H]1O please.
29.3

Entry NC(=O)c1ncn([C@@H]2O[C@H](CSCCO)[C@@H](O)[C@H]2O)n1 : reported Activity = ?
70

Report Activity for Nc1nc(N)c2ncn([C@@H]3O[C@H](CSCCO)[C@@H](O)[C@H]3O)c2n1 please.
18

Name the reported Activity value associated with the compound Nc1ncnc2c1ncn2[C@@H]1O[C@H](CSCCCO)[C@@H](O)[C@H]1O
27.4

Please look up its Activity: OCCSC[C@H]1O[C@@H](n2cnc3c2ncn2ccnc32)[C@H](O)[C@@H]1O
62

Fill in: Activity of Nc1nc(F)nc2c1ncn2[C@@H]1O[C@H](CSCCO)[C@@H](O)[C@H]1O is ___
106

# get_value(readout='Activity', item= NCCCSC[C@H]1O[C@@H](n2cnc3c(N)ncnc32)[C@H](O)[C@@H]1O )
60

Form field: reported Activity of CCCSC[C@H]1O[C@@H](n2cnc3c(N)ncnc32)[C@H](O)[C@@H]1O
26

* * *

Test system: Trypanosoma brucei brucei
Test: Activity at bloodstream Trypanosoma brucei brucei 5'-deoxy-5'-(methylthio)-adenosine phosphorylase by spectrophotometry in presence of 50 mM PO4- relative to control
Conditions: LAB 110 EATRO
experimental readout: Activity (%)
Your answer should be a plain number; it is taken to be in %.

OCCSC[C@H]1O[C@@H](n2cnc3c(F)ncnc32)[C@H](O)[C@@H]1O: 42
Nc1nc(F)nc2c1ncn2[C@@H]1O[C@H](CSCCO)[C@@H](O)[C@H]1O: 148
NC(=O)c1ncn([C@@H]2O[C@H](CSCCO)[C@@H](O)[C@H]2O)n1: 61

We now examine a further compound.
Name the reported Activity value associated with the compound CSC[C@H]1O[C@@H](n2ccc3c(N)ncnc32)[C@H](O)[C@@H]1O
0

* * *

System: Trypanosoma brucei brucei
Assay: Activity at bloodstream Trypanosoma brucei brucei 5'-deoxy-5'-(methylthio)-adenosine phosphorylase by spectrophotometry relative to control
Parameters: concentration or dose not given beside the values
Settings: LAB 110 EATRO
Measured Activity values are reported for all entries that follow.
// units = %; emit number, no label

Some molecules with known Activity results, for comparison:
OCCSC[C@H]1O[C@@H](n2cnc3c(O)ncnc32)[C@H](O)[C@@H]1O: 0
Cc1ncnc2c1ncn2[C@@H]1O[C@H](CSCCO)[C@@H](O)[C@H]1O: 25
Nc1ncnc2c1ncn2[C@H]1C[C@H](O)[C@@H](CSCCO)O1: 81
CSC[C@H]1O[C@@H](n2ccc3c(N)ncnc32)[C@H](O)[C@@H]1O: 0

Activity for Nc1ncnc2c1ncn2COCCSCCO ?
78

// returns reported Activity for input Nc1ncnc2c1ncn2[C@@H]1O[C@H](CSCCO)C[C@H]1O
37.8

Quick check: Activity of CSC[C@H]1O[C@@H](n2cnc3c(N)ncnc32)[C@H](O)[C@@H]1O ?
100
